In this section we review reported growth values for a set of molecules.
Tested on: SK-MEL-2 melanoma
Test: NCI-60 one-dose screen, 48 h (100 = growth as untreated, 0 = no growth, -100 = all killed)
Settings: 10 µM unless noted
Compounds without any hit were thinned out: in the full panel of roughly 83,000, 20% have a hit.
Answer in %, number only, no unit symbol.

Worked set:
1) CCC(C)C(N)C(=O)NC(CC(C)C)C(=O)N1CCCC1C(=O)NC(Cc1c[nH]c2ccccc12)C(=O)NC(CCCCN)C(=O)NC(Cc1c[nH]c2ccccc12)C(=O)N1CCCC1C(=O)NC(Cc1c[nH]c2ccccc12)C(=O)NC(Cc1c[nH]c2ccccc12)C(=O)N1CCCC1C(=O)NC(Cc1c[nH]c2ccccc12)C(=O)NC(CCCNC(=N)N)C(=O)NC(CCCNC(=N)N)C(N)=O (centres undefined) :: 108
2) CCCN1C(=O)N(CCC)C2C1NC(=S)N2/N=C/C=C/c1ccccc1OC (centres undefined) :: 49.6
3) O=C1NC(=O)C(=Cc2cc(-c3ccc(Cl)cc3)n(-c3ccccc3)n2)C(=O)N1 :: 106
4) O=C(Nc1cccc(Cn2c(=O)[nH]c3ccc(Oc4ncccn4)cc3c2=O)c1)c1cccc(Cl)c1 :: 71.7
5) COC(=O)c1nc(-c2ccccc2)oc1S(=O)(=O)N1CCN(c2ccc(OC)cc2)CC1 :: 106
6) CC(=O)O[C@H]1C[C@@]2(C)[C@@H](C[C@@H](O)[C@H]3[C@@]4(C)CC[C@H](N5CCCC5)[C@@H](C)[C@@H]4CC[C@@]32C)/C1=C(\CCC=C(C)C)C(=O)O :: 100
7) COc1ccc(Cn2cc3c(c2)-c2oncc2CC3)cc1 :: 68
8) CC(C)(C)c1ccc(C(=O)Nc2sc3c(c2C#N)CCC(=O)C3)cc1 :: 12.8

Now look at this entry.
Please give the measured growth for this molecule: O=C1OCC2=C1C(c1cccc(F)c1)c1cc3c(cc1N2CCO)CCC3 (centres undefined)
27

###

Test system: SNB-75 CNS
Experiment: NCI-60 one-dose screen, 48 h
Conditions: 10 µM unless noted
Method: Growth inhibition of the SNB-75 human tumor cell line is measured as a screen for anti-cancer activity. Cells are grown in 96 well plates and exposed to the test compound for 48 hours. Compounds are tested at a single concentration, which is 10^-5 M for most compounds. The reported endpoint is percent growth (GI% or GIPRCNT), where numbers from 0 - 100% represent growth inhibition, and numbers from -100% - 0 represent cell death. For example, a value of 40 represents 60% growth inhibition. […]
About 83,000 compounds went through this panel and 20% of them were active in at least one assay; those are over-represented in the sample as a whole. Active and inactive are the calls of the source. The calls were made as follows: active = growth percent below 10; inactive = the rest.
Hi there, use one of these labels in your reply, thanks! 1 (yes) = active, 0 (no) = inactive

1) CC(C)n1nc(-c2ccc3oc(N)nc3c2)c2c(N)ncnc21 :: 1 (yes)
2) Cc1ccccc1NC(=O)Cn1cc(CN2CCN(c3ccnc4cc(Cl)ccc34)CC2)nn1 :: 0 (no)
3) CCOC(=O)c1cc(C(=O)c2cc(OC)cc(OC)c2)n2ccccc12 :: 0 (no)

Turning now to a further record.
Test call, this compound: COc1cccc(/C=C/C(=O)/C=C(/C=C/c2cccc(OC)c2OC)OB(F)F)c1OC
0 (no)

###

Listed next: entries and their corresponding growth.
Tested on: NCI-H322M lung
Experiment: NCI-60 one-dose screen, 48 h (100 = growth as untreated, 0 = no growth, -100 = all killed)
Settings: 10 µM unless noted
Compounds without any hit were thinned out: in the full panel of roughly 83,000, 20% have a hit.
Please respond with the number in % and leave the unit unwritten.

Answered cases to consult:
1. CCC(C)C(N)C(=O)NC(CC(C)C)C(=O)N1CCCC1C(=O)NC(Cc1c[nH]c2ccccc12)C(=O)NC(CCCCN)C(=O)NC(Cc1c[nH]c2ccccc12)C(=O)N1CCCC1C(=O)NC(Cc1c[nH]c2ccccc12)C(=O)NC(Cc1c[nH]c2ccccc12)C(=O)N1CCCC1C(=O)NC(Cc1c[nH]c2ccccc12)C(=O)NC(CCCNC(=N)N)C(=O)NC(CCCNC(=N)N)C(N)=O (stereo unspecified) :: 100
2. Cc1ccc(C23CCC(=O)N2CCc2cncn23)cc1 (stereo unspecified) :: 99.3
3. CCc1ccc(Cc2cnc(NC(=O)c3cc(C)oc3C)s2)cc1 :: 56.8
4. CNC(=O)c1cc(Oc2ccc3nc(NC(=O)c4cc(C(F)(F)F)cc(C(F)(F)F)c4)sc3c2)ccn1 :: 15.1
5. CN1C(=O)N(C)C2C1NN=c1s/c(=C\c3ccccc3F)c(=O)n12 (stereo unspecified) :: 37.3

Alright, here's another molecule for you.
Consider the molecule shown here: COc1cc(/C=C/C(=O)c2ccc(-n3cc(CN4CCN(c5cc6c(cc5F)c(=O)c(C(=O)O)cn6C5CC5)CC4)nn3)cc2)cc(OC)c1OC What is its recorded growth?
88.8

###

System: SF-539 CNS
Assay: NCI-60 one-dose screen, 48 h (100 = growth as untreated, 0 = no growth, -100 = all killed)
Settings: 10 µM unless noted
About 83,000 compounds went through this panel and 20% of them were active in at least one assay; those are over-represented in the sample as a whole.
Some molecules, each annotated with its measured growth.
Supply the numeric figure in %, leaving out any unit text.

Example results:
1) C=C1C(=O)O[C@H]2[C@H]1CC/C(COC(=O)NCc1ccc(Cn3c(=O)sn(CCCC)c3=O)cc1)=C\CC[C@@]1(C)O[C@@H]21 :: 59.6
2) N#Cc1c(-c2ccc(F)cc2)cc(-c2cccc(Cl)c2)[nH]c1=O :: 9.45

Need growth of Cc1ccc2c(c1)CC(O)CC1C(=O)N(CCO)CC(=O)N21 (stereo unspecified) , thanks.
102

Next up: Cc1c(N2CCCCC2)[nH]c2ccccc12
121

Also need O=C1/C(=C/c2cccc([N+](=O)[O-])c2)COc2ccc(O)c(O)c21 , thanks.
-89.1

And N#C/C(Sc1nc2sc3c(c2c(=O)n1Cc1ccccc1)CCCC3)=C1/SC=C(c2ccc(Cl)cc2)N1c1ccccc1 ?
72.3

###

Test system: MCF7 breast
Assay: NCI-60 one-dose screen, 48 h (100 = growth as untreated, 0 = no growth, -100 = all killed)
Settings: 10 µM unless noted
This is part of a sample that, as a whole, favours compounds with a hit. Of some 83,000 tested, about 20% had one in any assay.
The molecules listed here are annotated with their growth.
Numbers only; they are read as %.

Reported growth, molecule COc1cc(-c2c(-c3ccccc3)c[nH]c2C(=O)NCCCO)c(OC)c2c1OCO2 : ____
110

###

System: HOP-62 NSCLC
Test: NCI-60 one-dose screen, 48 h
Details: 10 µM unless noted
The panel holds about 83,000 compounds, 20% with a hit somewhere; the sample as a whole holds those more often. Calls of active or inactive are those of the source. How the source made its calls: active means growth percent below 10; inactive means the rest.
// one of active, inactive, no free text

Past entries and their recorded results:
1. Cc1ccccc1NC(=O)Cn1cc(CN2CCN(c3ccnc4cc(Cl)ccc34)CC2)nn1 :: inactive
2. Cn1nc(-c2ccc(Cl)cc2)nc2c(=O)n(C)c(=O)nc1-2 :: active
3. N=C(N)c1ccc(-c2ccc(-c3ccc(Cl)cc3Cl)s2)nc1 :: inactive
4. C#CCOc1cc(/C=N/Nc2nc(-c3ccc(OC)cc3)cs2)ccc1O :: inactive

What call does the record list for O=C(Nc1ccc(Cl)cc1)C1=NCCCCN1 ?
inactive

# iterate: COc1cccc(CNc2nnc(C)c(C)n2)c1O
inactive

Please do the same for COC1CC(O)C2=C(CC3C(/C(C)=C\CC=C(C)C)CCC3(C)O2)C1=O (configuration not stated) as well.
inactive

###

System: SW-620 colon
Assay: NCI-60 one-dose screen, 48 h (100 = growth as untreated, 0 = no growth, -100 = all killed)
Details: 10 µM unless noted
The panel holds about 83,000 compounds, 20% with a hit somewhere; the sample as a whole holds those more often.
MEASURE NAME: growth (%)
Your answer is read as %, so omit the unit and give the number.

1. O=C(OCc1ccc2c(Br)cc(Br)c(O)c2n1)N1CCN(C(=O)c2cc3ccccc3[nH]2)CC1 :: 25.3
2. N#Cc1c(-c2ccc(F)cc2)cc(-c2cccc(Cl)c2)[nH]c1=O :: 104
3. COC(=O)c1cc(-c2ccc(OC)c(OC)c2)[nH]c1N/N=C/c1c(Cl)cccc1Cl :: 21.3
4. CN(C)C(=O)OCc1ccc2c(Cl)cc(Cl)c(O)c2n1 :: 25.7
5. O=C(/C=C\c1ccc(O)c(O)c1)c1ccccc1O :: 67.7

Report growth for CN1CCN(CC(=O)N(C)c2ccc(N=C(c3ccccc3)c3c(O)[nH]c4ccc([N+](=O)[O-])cc34)cc2)CC1 please.
48.4

Try this molecule next: CO[C@H]1/C=C/O[C@@]2(C)Oc3c(C)c(O)c4c(O)c(c5c(nc6cc(C)ccn65)c4c3C2=O)NC(=O)/C(C)=C\C=C\[C@H](C)[C@H](O)[C@@H](C)C(O)[C@@H](C)[C@H](OC(C)=O)[C@@H]1C (some centres not stated)
114

This collection of values is drawn from PubChem BioAssay (NCI).
